Molecular target: MCR4 (human, UniProt P32245 1-332)
Sequence (P32245 whole entry): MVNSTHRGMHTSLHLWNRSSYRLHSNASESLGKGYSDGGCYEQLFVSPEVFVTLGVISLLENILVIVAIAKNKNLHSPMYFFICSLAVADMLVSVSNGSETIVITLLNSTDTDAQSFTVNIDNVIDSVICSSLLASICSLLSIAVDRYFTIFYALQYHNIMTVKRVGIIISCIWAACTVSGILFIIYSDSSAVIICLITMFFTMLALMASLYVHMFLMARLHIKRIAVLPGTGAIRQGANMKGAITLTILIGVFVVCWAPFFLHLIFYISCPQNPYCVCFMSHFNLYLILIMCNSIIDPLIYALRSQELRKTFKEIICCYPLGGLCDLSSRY
Experiment: cell-based or functional assay
Square brackets hold non-standard residues; d marks the D form. Ends that are not written are not given here. Nle = CCCC[C@H](N)C(=O)O
# Lookup of reported MCR4 EC50 (nM); cAMP production, LANCE cAMP assay, CHO-MCR4 cells, cell pool C keyed by entry
Put your answer as a value accompanied by its unit after it.

The following binders have reported results that may help.
## Input Can you look up the measured MCR4 EC50 (nM); cAMP production, LANCE cAMP assay, CHO-MCR4 cells, cell pool C of SYSMEHFRWGKPVGKKRRAVKVYPGGGGSGGSYS[Nle]EH[dF]RWGKPV [ACTH1-24-point-5-7aa-NDP-α-MSH] for me?
## Output 2.1 nM

## Input Can you look up the measured MCR4 EC50 (nM); cAMP production, LANCE cAMP assay, CHO-MCR4 cells, cell pool C of SYSMEHFRWGKPVGKKRRAVKVYPGGGSSYS[Nle]EH[dF]RWGKPV [ACTH1-24-point-5-4aa-NDP-α-MSH] for me?
## Output 1.8 nM

## Input Can you look up the measured MCR4 EC50 (nM); cAMP production, LANCE cAMP assay, CHO-MCR4 cells, cell pool C of SYSMEHFRWGKPVGKKAAAVKVYPSYS[Nle]EH[dF]RWGKPV [ACTH1-24-point-3-5-NDP-α-MSH] for me?
## Output 2.2 nM

---
## Input Can you look up the measured MCR4 EC50 (nM); cAMP production, LANCE cAMP assay, CHO-MCR4 cells, cell pool C of SYSMEHFRWGKPVGKKRRAVKVYPSYS[Nle]EH[dF]RWGKPV [ACTH1-24-point-5-NDP-α-MSH] for me?
## Output 3.4 nM

## Input Can you look up the measured MCR4 EC50 (nM); cAMP production, LANCE cAMP assay, CHO-MCR4 cells, cell pool C of SYSMEHFRWGKPVGKKAAAVKVYPGGGGSGGSYS[Nle]EH[dF]RWGKPV (ends and bridges not checked) [ACTH1-24-point-3-5-7aa-NDP-α-MSH] for me?
## Output 2.4 nM

## Input Can you look up the measured MCR4 EC50 (nM); cAMP production, LANCE cAMP assay, CHO-MCR4 cells, cell pool C of SYSMEHFRWGKPVGKKAAAVKVYP [ACTH1-24-point-3-5] for me?
## Output 128 nM
